assay_target: human IRAK4 (Homo sapiens (Human), UniProt Q9NWZ3)
Sequence (Q9NWZ3 whole entry): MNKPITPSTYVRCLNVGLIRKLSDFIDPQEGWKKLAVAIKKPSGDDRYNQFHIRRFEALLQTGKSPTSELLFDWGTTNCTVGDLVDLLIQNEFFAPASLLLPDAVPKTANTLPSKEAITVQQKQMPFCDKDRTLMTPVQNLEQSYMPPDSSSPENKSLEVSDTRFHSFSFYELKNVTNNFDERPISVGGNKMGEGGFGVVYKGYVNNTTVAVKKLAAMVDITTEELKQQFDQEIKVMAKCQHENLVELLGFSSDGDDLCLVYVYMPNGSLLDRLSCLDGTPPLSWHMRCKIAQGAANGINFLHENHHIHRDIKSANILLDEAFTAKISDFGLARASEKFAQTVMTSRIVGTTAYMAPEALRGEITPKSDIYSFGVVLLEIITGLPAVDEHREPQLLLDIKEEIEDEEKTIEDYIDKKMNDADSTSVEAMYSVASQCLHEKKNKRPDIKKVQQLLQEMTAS

| smiles_representation | IC50 |
| --- | --- |
| Cc1nsc2nc(Nc3cnn(C4CCOCC4)c3)nc(N[C@H]3CC[C@H](N4CCNC(=O)C4)CC3)c12 | 460 nM |
| Cn1cc(Nc2nc(N[C@H]3CC[C@H](N4CCOCC4)CC3)c3c(C4CCOCC4)nsc3n2)cn1 | 8.7 nM |
| Cc1nsc2nc(Nc3cnn(C4CCOCC4)c3)nc(N[C@H]3CC[C@H](N4CCOCC4=O)CC3)c12 | 363 nM |
| Cc1nsc2nc(Nc3cnn(C4CCOCC4)c3)nc(N(C)[C@H]3CC[C@H](N4CCOCC4)CC3)c12 | 60.1 nM |
| COC(=O)N1C2CC1CN([C@H]1CC[C@H](Nc3nc(Nc4cnn(C5CCOCC5)c4)nc4snc(C)c34)CC1)C2 | 40.7 nM |
| CC(C)c1nsc2nc(Nc3cnn(C4CCOCC4)c3)nc(N[C@H]3CC[C@H](N4CCOCC4)CC3)c12 | 2.9 nM |
| CCOC(=O)N1CCN([C@H]2CC[C@H](Nc3nc(Nc4cnn(C5CCOCC5)c4)nc4snc(C)c34)CC2)CC1 | 1.6 nM |

###

assay_target: human IRAK4 (Homo sapiens (Human))
Checkbox rule: IC50 lower than 10 nM = 1; IC50 not lower than 10 nM = -1.

| compound | discrete_label |
| --- | --- |
| COC(=O)N1CCN([C@H]2CC[C@H](Nc3nc(Nc4cnn(C5CCOC5)c4)nc4snc(C)c34)CC2)CC1 (stereo partly drawn) | -1 |
| Cc1nsc2nc(Nc3cnn(C4CCOCC4)c3)nc(N[C@H]3CC[C@H](N4CCN(C)CC4)CC3)c12 | 1 |
| COC(=O)N1CCN([C@H]2CC[C@H](Nc3nc(Nc4cnn([C@H]5CCOC5)c4)nc4snc(C)c34)CC2)CC1 | -1 |
| CC(=O)N1C2CC1CN([C@H]1CC[C@H](Nc3nc(Nc4cnn(C5CCOCC5)c4)nc4snc(C)c34)CC1)C2 | -1 |
| Cc1nsc2nc(Nc3cnn(C4CCOC4)c3)nc(N[C@H]3CC[C@H](N4CCOCC4)CC3)c12 (stereo partly drawn) | 1 |
| Cc1nsc2nc(Nc3cnn(C4CCOCC4)c3)nc(N[C@H]3CC[C@H](N4CC5CC(C4)N5)CC3)c12 | -1 |
| Cc1nsc2nc(Nc3cnn(C4COC4)c3)nc(N[C@H]3CC[C@H](N4CCOCC4)CC3)c12 | -1 |
| COC(=O)N1CCN([C@H]2CC[C@H](Nc3nc(Nc4cnn(C5CCC(F)(F)CC5)c4)nc4snc(C)c34)CC2)CC1 | 1 |
| Cc1nsc2nc(Nc3cnn(C4CCOCC4)c3)nc(N[C@H]3CC[C@H](N4CCNCC4C)CC3)c12 (stereo partly drawn) | -1 |
| Cc1nsc2nc(Nc3cnn(C4CCOCC4)c3)nc(N[C@H]3CC[C@H](N4CCN(C(C)C)CC4)CC3)c12 | 1 |
| Cc1nsc2nc(Nc3cnn(C4CCOCC4)c3)nc(NC3CCC(N4CCCNCC4)CC3)c12 (stereo not drawn) | 1 |
| Cc1nsc2nc(Nc3cnn(C4CCOCC4)c3)nc(N[C@H]3CC[C@H](N4CC(O)C4)CC3)c12 | 1 |
| Cc1nsc2nc(Nc3cnn(C[C@@H]4COCCO4)c3)nc(N[C@H]3CC[C@H](N4CCOCC4)CC3)c12 | -1 |
| Cc1nsc2nc(Nc3cnn(C4CCOCC4)c3)nc(N[C@H]3CC[C@H](N4CC5CC(C4)N5C)CC3)c12 | -1 |
| COC(=O)N1CCN([C@H]2CC[C@H](Nc3nc(Nc4cnn(C5CCOCC5)c4)nc4snc(C)c34)CC2)CC1 | 1 |

###

assay_summary: Pharmacokinetic study of oral and intravenous test compounds in SD rats
Type: in vivo
conditions_used: rat, plasma; Intravenous, 3 mg/kg, SD male rats; read-out: Half life T1/2 (converted)
result_type: half-life

| molecule | observed |
| --- | --- |
| NC(=O)C[C@H]1CCc2sc3ncnc(O[C@H]4CC[C@H](N5CCOCC5)CC4)c3c21 [WXR2, ND-2110, reference compound] | 1.3 h |
| CC(C)c1nsc2nc(Nc3cnn(C4CCOCC4)c3)nc(N[C@H]3CC[C@H](N4CCOCC4)CC3)c12 | 1 h |
| Cc1nsc2nc(Nc3cnn(C4CCOCC4)c3)nc(N[C@H]3CC[C@H](N4CCOCC4)CC3)c12 | 1.4 h |
| Cc1nsc2nc(Nc3cnn(C4COC4)c3)nc(N[C@H]3CC[C@H](N4CCOCC4)CC3)c12 | 1.8 h |
| COC(=O)N1CCN([C@H]2CC[C@H](Nc3nc(Nc4cnn(C5CCOCC5)c4)nc4snc(C)c34)CC2)CC1 | 2.2 h |
| Cc1nsc2nc(Nc3cnn(C4CCOC4)c3)nc(N[C@H]3CC[C@H](N4CCOCC4)CC3)c12 (stereo partly drawn) | 0.9 h |

###

// reported AUC(0-t) for each item listed
assay_summary: Pharmacokinetic study of oral and intravenous test compounds in SD rats
Assay type: in vivo
conditions_used: rat, plasma; Intravenous, 3 mg/kg, SD male rats; read-out: Area under plasma concentration-time curve AUC0-last

| compound | unit_spec | AUC(0-t) |
| --- | --- | --- |
| Cc1nsc2nc(Nc3cnn(C4CCOCC4)c3)nc(N[C@H]3CC[C@H](N4CCOCC4)CC3)c12 | µM·h | 1.75 |
| NC(=O)C[C@H]1CCc2sc3ncnc(O[C@H]4CC[C@H](N5CCOCC5)CC4)c3c21 [WXR2, ND-2110, reference compound] | µM·h | 3.68 |
| COC(=O)N1CCN([C@H]2CC[C@H](Nc3nc(Nc4cnn(C5CCOCC5)c4)nc4snc(C)c34)CC2)CC1 | µM·h | 1.77 |
| Cc1nsc2nc(Nc3cnn(C4COC4)c3)nc(N[C@H]3CC[C@H](N4CCOCC4)CC3)c12 | µM·h | 1.46 |
| Cc1nsc2nc(Nc3cnn(C4CCOC4)c3)nc(N[C@H]3CC[C@H](N4CCOCC4)CC3)c12 (stereo partly drawn) | µM·h | 1.33 |
| CC(C)c1nsc2nc(Nc3cnn(C4CCOCC4)c3)nc(N[C@H]3CC[C@H](N4CCOCC4)CC3)c12 | µM·h | 1.33 |

###

assay_summary: Pharmacokinetic study of oral and intravenous test compounds in SD rats
Type: in vivo
conditions_used: rat, plasma; Oral, 10 mg/kg, SD male rats; read-out: Time to peak Tmax
Listing of entries alongside the reported Tmax.

| molecule | unit_spec | Tmax |
| --- | --- | --- |
| NC(=O)C[C@H]1CCc2sc3ncnc(O[C@H]4CC[C@H](N5CCOCC5)CC4)c3c21 [WXR2, ND-2110, reference compound] | h | 0.6 |
| Cc1nsc2nc(Nc3cnn(C4CCOC4)c3)nc(N[C@H]3CC[C@H](N4CCOCC4)CC3)c12 (stereo partly drawn) | h | 2 |
| Cc1nsc2nc(Nc3cnn(C4COC4)c3)nc(N[C@H]3CC[C@H](N4CCOCC4)CC3)c12 | h | 2.5 |
| Cc1nsc2nc(Nc3cnn(C4CCOCC4)c3)nc(N[C@H]3CC[C@H](N4CCOCC4)CC3)c12 | h | 2.3 |
| COC(=O)N1CCN([C@H]2CC[C@H](Nc3nc(Nc4cnn(C5CCOCC5)c4)nc4snc(C)c34)CC2)CC1 | h | 1.5 |
| CC(C)c1nsc2nc(Nc3cnn(C4CCOCC4)c3)nc(N[C@H]3CC[C@H](N4CCOCC4)CC3)c12 | h | 0.8 |

###

The molecules listed here are annotated with their AUC(0-t).
assay_summary: Pharmacokinetic study of oral and intravenous test compounds in SD rats
Assay type: in vivo
conditions_used: rat, plasma; Oral, 10 mg/kg, SD male rats; read-out: Area under plasma concentration-time curve AUC0-last

| molecule | AUC(0-t) / µM·h |
| --- | --- |
| Cc1nsc2nc(Nc3cnn(C4COC4)c3)nc(N[C@H]3CC[C@H](N4CCOCC4)CC3)c12 | 2.69 |
| COC(=O)N1CCN([C@H]2CC[C@H](Nc3nc(Nc4cnn(C5CCOCC5)c4)nc4snc(C)c34)CC2)CC1 | 1.36 |
| NC(=O)C[C@H]1CCc2sc3ncnc(O[C@H]4CC[C@H](N5CCOCC5)CC4)c3c21 [WXR2, ND-2110, reference compound] | 2.13 |
| Cc1nsc2nc(Nc3cnn(C4CCOCC4)c3)nc(N[C@H]3CC[C@H](N4CCOCC4)CC3)c12 | 2.05 |
| Cc1nsc2nc(Nc3cnn(C4CCOC4)c3)nc(N[C@H]3CC[C@H](N4CCOCC4)CC3)c12 (stereo partly drawn) | 1.64 |
| CC(C)c1nsc2nc(Nc3cnn(C4CCOCC4)c3)nc(N[C@H]3CC[C@H](N4CCOCC4)CC3)c12 | 2.01 |
